# Tested on: K4 kissing-loop RNA reporter;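 further: bound reporter read as fluorescence of individual clusters on recovered sequencing chips by microscopy, with normalized cluster intensities fitted with a binding model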
# experimental_protocol: apparent KD of K4 kissing-loop reporter; higher = weaker reporter binding
# conditions_used: Eterna round: R107; input ligand: theophylline 20 uM
Please enter condition met where apparent KD of K4 kissing-loop reporter is greater than or equal to 200 nM, and condition not met where it is lower.

Solved entries (count: 3):
{"polymer_sequence": "CCGACUGCAGGAAGGAGCGGCGGUUGGAGUGAUGUUCCGGGUAGUGAUGUUACCAAACUCCGCCAGGUAGGUCGCCUGUUGCUCG [Same State Arginine B GF10]", "qualitative_label": "condition not met"}
{"polymer_sequence": "GUCUCAAAAGAGGCAAGCACUCACGAGGACAAGGAUAUCAUAUCAAUGAGAAGGUGUCCUCGUCCUCAGUGAUGUUGAGGAGUGC [Omei KL FMN A SS E v4]", "qualitative_label": "condition met"}
{"polymer_sequence": "AAACAACGUGACGAUACCAGCUUACUCGGCAAGCCAGUGAUGUUGGUGAAAAGGAGUCAAAGCCCUUGGCAGCGUCGAAGGUCUG [Georbeer]", "qualitative_label": "condition not met"}

input: Say whether CCAGGAUGAUGAGGAUGAUGAAUUACUGAAGGAGCGCAUAUGGUUGCAGGUAGGUCGCGGUGAACAAGUAUAGUGAUGUUAUGCC [SSArgA.W] shows apparent KD of K4 kissing-loop reporter of 200 nM or more.
output: condition met

input: Follow-up entry: CCACCAAGCACGGCCGCCACUAAAUCUGCAAGUAACCUAAAGUGAUGUUUUAUCUUGCGUCAGACUAGGACCGGGUGUCAAGUUA [theeternabot_sameState_KL_Trp_B_45]
output: condition met

input: Check AUUUUAUUAACUGAUACCAGACUUAAUGAAUUGUAAAUUACUAGUGAUGUUAGUGAUUCUGUCCCUUGGCAGCAGUAUUUAUUAA [JR_ExcTheophyB_Sub012] too.
output: condition not met

---

# Tested on: MS2 coat protein
# experimental_protocol: apparent KD of MS2 coat protein; designed switch direction (-1 OFF switch, 1 ON switch): -1; higher = weaker reporter binding
# conditions_used: input ligand: none
Given measured apparent KD of MS2 coat protein, output 1 if it is greater than or equal to 0.05 µM and -1 if not.

Illustrative cases are given below, each with its answer.
{"polymer_sequence": "UAUUAGCAAGCAAGAUCCUACAUGAGGAUCACCCAUGUGCUCGUCUUAAACUCAGAAUUACUGAGAGCUCGUCUUAU [Winner reversed engineered 24] (Eterna round: R97, puzzle: Sensor, turn-off variant 1)", "qualitative_label": 1}
{"polymer_sequence": "UCGUAGUCAGGAUAUACAUGAGGAUCACCCAUGUAAAAUUUUAAUUUAAUUUUAAGGUGUAGAAGGGACCAUUU [Ex3 #21] (Eterna round: R97, puzzle: Exclusion 3)", "qualitative_label": -1}
{"polymer_sequence": "GUCAGCUCGUGAGGAUAUAUAUACAUGAGGAUCACCCAUGUAAGAUCAGGCUUCGGCCAAUGUAUAUAGAAGGCACGAGCUGAU [ENG2/11-A2] (Eterna round: R96, puzzle: Exclusion NG 2)", "qualitative_label": 1}
{"polymer_sequence": "CCCACAAGCUUUUUGCUCGACAUGAGGAUCACCCAUGUAAAAUGGGUAAAUUUAAAUUUAAAUUUAUUUAAAUUGGG [-18.1, -41.9 kcal, A 34%] (Eterna round: R97, puzzle: Sensor, turn-off variant 1)", "qualitative_label": 1}

We next turn to a different sequence, shown below.
input: // inclusive: apparent KD of MS2 coat protein at least 0.05 µM? input: UGUUUACAUGAGGAUCACCCAUGUCAGGAUAUGCUCGAUAUAUGGAAACAUAUAUCGAGCAGAAGGGACUAGCG [Jieuxxlusion 4 - Jieux - Exclusion 1] (Eterna round: R97, puzzle: Exclusion 1)
output: -1
